# reported z-score; entries follow
- protocol-details: PSAC antagonists in infected red cells, primary screen, cell-based, P. falciparum Indochina, OD700, 1 h (AID 1154)
- conditions-used: P. falciparum Indochina infected RBC osmotic lysis, higher = more signal, called active from +8 up or from −8 down
Respond numerically, and do not add a unit to the figure.

Worked cases, answers included:
[
  {
    "molecule": "CCCCCCc1nc(CCCc2cc3c(c(CCCCCC)n2)[Si](C(C)C)(C(C)C)O[C@H]3c2ccccc2)cc2c1[Si](C(C)C)(C(C)C)O[C@H]2c1ccccc1",
    "z-score": 0.963
  },
  {
    "molecule": "COC(=O)[C@H](C)NC(=O)CCC1CC(OC(=O)NCc2cccc3ccccc23)CC2(CCCC(COC(=O)NCCc3ccc(Cl)cc3)O2)O1 (some centres not stated)",
    "z-score": 0.119
  },
  {
    "molecule": "COC(=O)[C@H](C)NC(=O)CCC1CC(OC(=O)NCc2ccc3c(c2)OCO3)CC2(CCCC(COC(=O)NCCOc3ccccc3)O2)O1 (some centres not stated)",
    "z-score": -1.1
  }
]

# input molecule: COc1ccc([Si](C)(C)[C@H]2[C@H](CC(=O)N3CCC[C@H]3CO)O[C@@]3(C(=O)N(Cc4cccc(N5C(=O)COc6ccccc65)c4)c4ccccc43)[C@@H]2C)cc1 ; wanted: its z-score
6.56

# input molecule: [N-]=[N+]=Nc1ccccc1C[C@@]1(C(N)=O)N=C(c2ccc(OCCCO)cc2)O[C@@H]1c1ccccc1 ; wanted: its z-score
27.3

# input molecule: CO[C@@H]1COC(=O)CC=C[C@@H](C)[C@@H]2C=C[C@@H](O)[C@@H](COC(=O)CC=C[C@H]1C)O2 ; wanted: its z-score
0.118

# input molecule: CN1C(=O)C2C=CC(C(O)c3ccc(Br)cc3)N(N(c3ccccc3)c3ccccc3)C2C1=O (configuration not stated) ; wanted: its z-score
15.4

# input molecule: c1ccc(C2NCCc3c2[nH]c2ccccc32)cc1 (configuration not stated) ; wanted: its z-score
1.07

# input molecule: CCN(CC)c1ccc(N2CC=CC34O[C@@H]5/C=C\CCC(C)OC(=O)C5[C@H]3C(=O)N(CCCO)[C@@H]4C2=O)cc1 (some centres not stated) ; wanted: its z-score
1.43

# input molecule: CO[C@H]1COC(=O)[C@H](C)COC(=O)CC=C[C@@H](C)[C@H](OC)COC(=O)CC=C[C@@H]1C ; wanted: its z-score
-0.654

# input molecule: CC=CC1=C(CO)[C@H](O)[C@H]2O[C@H]2[C@H]1O ; wanted: its z-score
-0.528

# input molecule: CCCNC(=O)[C@@H]1c2ccccc2C(=O)N(c2ccc(C)cn2)[C@H]1c1ccc(CO)cc1 ; wanted: its z-score
1.97

# input molecule: C=COC[C@H]1CN2[C@@H](CC[C@@H](C)[C@@H]2c2ccc(Br)cc2)C(=O)O1 ; wanted: its z-score
-0.591

* * *

- protocol-details: A549 lung cancer cell viability effects, profiling panel, resazurin fluorescence, 24 h, PK04 Diversity Set (AID 1171); note: test concentration not given here
- conditions-used: higher = more signal, called active from +8 up or from −8 down
The source made the active and inactive calls.
quantity-kind: z-score

[
  {
    "compound": "CCOC(=O)CCN1C(=O)[C@H]2[C@H]3[C@H](O)C=CC(=O)[C@@H]3CC[C@H]2C1=O",
    "z-score": "0.289 (inactive)"
  }
]

Now turn to the next compound.
# input compound: CC(C)C[C@@H]1NC(=O)[C@H]2C[C@@H](C(=O)O)[C@@H](c3ccc(O)cc3)N2C1=O ; wanted: its z-score
-0.0496 (inactive)
